# target-or-test-system: T1, 4H3939-AA
# T1 chain: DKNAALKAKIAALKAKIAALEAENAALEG
# test-description: two-hybrid library CCmax;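 also: natural log of median RNA to DNA barcode read ratio; higher means stronger binding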
# measurement-conditions: mean of both orientations
measure-name: interaction score

Answered examples (5):
{"binder": "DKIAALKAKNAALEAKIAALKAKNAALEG [4H2991-AA]", "interaction score": -1.71}
{"binder": "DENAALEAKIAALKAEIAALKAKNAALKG [4H1360-AA]", "interaction score": 0.656}
{"binder": "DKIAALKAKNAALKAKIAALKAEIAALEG [4H3049-AA]", "interaction score": -0.638}
{"binder": "DKNAALEAEIAALEAKNAALKAEIAALEG [4H3129-AA]", "interaction score": -1.82}
{"binder": "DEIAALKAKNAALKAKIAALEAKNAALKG [4H1000-AA]", "interaction score": -1.65}

P. DKNAALKAEIAALKAKNAALKAKIAALEG [4H3709-AA]
Q. DKNAALKAEIAALEAKIAALKAENAALKG [4H3628-AA]
Q: Parameter check: reported interaction score is higher for which label, P or Q ? Please indicate the selected item by its label.
Result: Q
(Q: 0.744, P: -2.03)
